# System: HepG2 cells
# EXPERIMENTAL_PROTOCOL: HepG2 cytotoxicity assay
# TEST_PARAMETERS: HepG2 cytotoxicity unified across the three screens
# Experimental: Briefly, HepG2 cells were seeded onto compound-treated 384 well plates at a density of 2,500 cells per well in Minimal Essential Medium (MEM) plus 10% fetal bovine serum and 1% non-essential amino acids solution (NEAA). […] Cell viability was then measured in a fluorescent plate reader and percent inhibition calculated with respect to positive and negative controls.
REPORTED_ENDPOINT: Unified cytotox (µM)
Use µM as the unit, but write only the number.

Recorded results for 3 molecules are shown here.
[
  {
    "MOLECULE": "[O-][s+]1c(Cl)c(-c2ccc(Cl)cc2)c2ccc(Cl)cc21 (centres unmarked)",
    "MEASURED_TARGET": "HepG2 cells",
    "REPORTED_ENDPOINT": "Unified cytotox",
    "UNIT_SPEC": "µM",
    "RECORDED_MEASUREMENT": 12.08
  },
  {
    "MOLECULE": "CCc1c(CCNCCCCCCNC(C)Cc2ccc3c(c2CC)OCO3)ccc(OC)c1OC.Cl (centres unmarked)",
    "MEASURED_TARGET": "HepG2 cells",
    "REPORTED_ENDPOINT": "Unified cytotox",
    "UNIT_SPEC": "µM",
    "RECORDED_MEASUREMENT": 2.78
  },
  {
    "MOLECULE": "C#CCOc1ccc2ccccc2c1CNCCCCCCNCc1c(OCC#C)ccc2ccccc12.CS(=O)(=O)O",
    "MEASURED_TARGET": "HepG2 cells",
    "REPORTED_ENDPOINT": "Unified cytotox",
    "UNIT_SPEC": "µM",
    "RECORDED_MEASUREMENT": 3.05
  }
]

stdin: May I ask what Unified cytotox has been recorded for CCN(CC)/C(=N/C(=N)NCc1ccc(Cl)cc1Cl)NCCCCCCN/C(=N\C(=N)NCc1ccc(Cl)cc1Cl)N(CC)CC ?
stdout: 36.73

stdin: May I ask what Unified cytotox has been recorded for COc1ccc(CNC2Cc3ccccc3C2)cc1-c1ccc(S(=O)(=O)NCCN2CCCC2)cc1.O=C(O)C(F)(F)F ?
stdout: 7.08

stdin: May I ask what Unified cytotox has been recorded for C=C[C@H]1CN(CCCCCCC)CC[C@H]1CCNc1ccnc2ccc(OC)cc12 ?
stdout: 2.82

stdin: May I ask what Unified cytotox has been recorded for CCN(CC)CCCn1c(N)c(-c2nc3ccccc3[nH]2)c2nc(C#N)c(C#N)nc21 ?
stdout: 6.48

stdin: May I ask what Unified cytotox has been recorded for S=C(NN=Cc1ccccn1)NC1CC2C=CC1C2 (centres unmarked) ?
stdout: 0.70

----------
# System: HepG2 cells
# EXPERIMENTAL_PROTOCOL: HepG2 cytotoxicity assay
# TEST_PARAMETERS: unified HepG2 cytotoxicity across the three screens
Binary call on Unified cytotox: 1 (yes) from 9 µM upward, 0 (no) beneath that.

Example entries and their recorded answers appear below.
[
  {
    "COMPOUND": "CNCC(C)(C)c1nc(-c2ccc(Cl)c(O)c2)c(-c2ccncc2)[nH]1.Cl",
    "CLASS_NAME": "1 (yes)"
  },
  {
    "COMPOUND": "CC(C)(C)c1ccc(CNCCOc2ccc(Nc3nnc(-c4ccc(-c5ncc[nH]5)cc4)o3)c3ccccc23)cc1.O=C(O)C(F)(F)F",
    "CLASS_NAME": "0 (no)"
  },
  {
    "COMPOUND": "COc1ccc2nc(N=C3NC4(c5ccccc5)NC(=Nc5nc6ccc(OC)cc6[nH]5)NC4(c4ccccc4)N3)[nH]c2c1.O=C(O)C(F)(F)F (stereo not shown)",
    "CLASS_NAME": "1 (yes)"
  },
  {
    "COMPOUND": "CC1(CCN2CCC(c3c[nH]c4cnccc34)CC2)CCCc2c(Br)cccc2C1=O.Cl (stereo not shown)",
    "CLASS_NAME": "0 (no)"
  },
  {
    "COMPOUND": "CC(Cc1ccc(NS(=O)(=O)c2ccc(CC(C)NCCc3cccc(Cl)c3)cc2)cc1)NCCc1cccc(Cl)c1 (stereo not shown)",
    "CLASS_NAME": "0 (no)"
  }
]

Consider now this further compound.
stdin: Determine whether this compound has Unified cytotox no lower than 9 µM: CN(C)CCN1CCN(CCCN2c3ccccc3Sc3ccc(C(F)(F)F)cc32)CC1.Cl
stdout: 1 (yes)
